Value source: patent US4843077A

tested on: renal vasculature; test: Renal vasodilating activity in anesthetized dogs; format: in vivo, adult mongrel dogs; details: Canis lupus familiaris; anesthetized dog, dose 6.2 mpk iv, relative to control; read-out: MABP, percent change in mean arterial blood pressure
Below: a set of entries, each annotated with reported change in vivo at 6.2 mg/kg.

| Compound | Unit string | change in vivo at 6.2 mg/kg |
| --- | --- | --- |
| COc1cc2c(C)nc(N3CCN(c4ccccc4)CC3)c([N+](=O)[O-])c2cc1OC [Cmpd 19] | % | 6 |
| COc1cc2c(C)nc(NC3CCN(Cc4ccccc4)CC3)c([N+](=O)[O-])c2cc1OC [Cmpd 11] | % | -13 |
| COc1cc2c(C)nc(NCc3ccccc3)c([N+](=O)[O-])c2cc1OC [Cmpd 4] | % | -6 |
| CCN(CC)c1nc(C)c2cc(OC)c(OC)cc2c1[N+](=O)[O-] [Cmpd 15] | % | 0 |
| COc1cc2c(C)nc(Nc3ccccc3)c([N+](=O)[O-])c2cc1OC [Cmpd 12] | % | -3 |
